Cited source: PubChem BioAssay AID577

tested-system: Genome polyprotein (West Nile virus) (UniProt P06935)
Sequence (P06935 1371-1501 limits assumed): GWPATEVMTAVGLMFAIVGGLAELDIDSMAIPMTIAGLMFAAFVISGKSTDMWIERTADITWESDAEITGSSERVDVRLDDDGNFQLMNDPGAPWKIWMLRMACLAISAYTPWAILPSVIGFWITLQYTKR
Sequence (P06935 1502-1679 limits assumed): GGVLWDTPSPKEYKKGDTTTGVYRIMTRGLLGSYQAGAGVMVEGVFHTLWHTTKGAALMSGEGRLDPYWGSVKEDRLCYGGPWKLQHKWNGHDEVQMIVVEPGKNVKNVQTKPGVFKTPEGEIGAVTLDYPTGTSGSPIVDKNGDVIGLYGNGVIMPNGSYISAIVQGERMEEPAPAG
assay-procedure: West Nile NS2B-NS3 proteinase blockers – biochemical, fluorogenic substrate, primary screen (AID 577)
condition-description: WNV NS2B-NS3 protease, fluorogenic substrate Ex360/Em465; hits give low values
Among all 65,000 compounds or so, about 120 (0.18%) were called active. The list comes from a sample in which actives are over-represented; it also holds close analogues and randomly drawn compounds.
Classify by z-score. Ranges: lower band: < -0.2; central band: ≥ -0.2 and < 0.9; upper band: ≥ 0.9

Take a look at these entries with their results.
compound | class-assignment
COC(=O)c1cc(NC2c3ccccc3C(=O)N2c2ccc(Cl)cn2)cc(C(=O)OC)c1 (configuration not stated) | lower band
CC(=O)Nc1cccc2c1[n+]([O-])c(C)c(C)[n+]2[O-] | upper band
O.O.O.O=S(=O)([O-])OC[C@H]1O[C@@H](O[C@]2(COS(=O)(=O)[O-])O[C@H](OS(=O)(=O)[O-])[C@@H](OS(=O)(=O)[O-])[C@@H]2OS(=O)(=O)[O-])[C@H](OS(=O)(=O)[O-])[C@@H](OS(=O)(=O)[O-])[C@@H]1OS(=O)(=O)[O-].[Al] | lower band
COC(=O)c1oc2ccc(Br)cc2c1NC(C)=O | central band
CCn1cc(C(=O)N2CCN(C3CCCCC3)CC2)c2cc(OC)c(OC)cc2c1=O | central band

Exam item: Place this compound in its band: CCOC(=O)c1cnc(-n2nc(C)cc2C)nc1-n1nc(C)cc1C
Marked response: central band

Exam item: Same again, this time with O=C(Nc1ccon1)c1sc2ccccc2c1Cl
Marked response: upper band

Exam item: Same again, this time with CCCN(CCC)CCNC(=O)c1cc2c(C)nc3ccccc3c2o1
Marked response: upper band

Exam item: Same again, this time with O=C(CCCN1C(=O)CSc2ncccc21)N1CCN(c2cccc(C(F)(F)F)c2)CC1
Marked response: central band

Exam item: Same again, this time with CC(=O)c1ccc(NC(=O)N[C@@H](Cc2ccccc2)C(=O)O)cc1
Marked response: upper band

Exam item: Same again, this time with c1ccc(CCC2=NCCn3cccc32)cc1
Marked response: central band

Exam item: Same again, this time with CCOCC(=O)NCc1ccc2c(c1)cc(C)n2C
Marked response: lower band

Exam item: Same again, this time with COc1ccc2oc(C)c(NC(C)=O)c2c1
Marked response: lower band

* * *

tested-system: Genome polyprotein (West Nile virus) (UniProt P06935)
assay-procedure: West Nile NS2B-NS3 proteinase blockers – biochemical, fluorogenic substrate, primary screen (AID 577)
condition-description: WNV NS2B-NS3 protease, fluorogenic substrate Ex360/Em465; hits give low values
The campaign covered roughly 65,000 compounds. About 120 (0.18%) were called active. This is one part of a sample in which actives are shown more often than they occur.
Quick rule for you: z-score under -0.5 gets met, anything else gets not met.

Take a look at these entries with their results.
compound | class-assignment
Cc1cc(NC(=O)CCC(=O)N(c2cccc(F)c2)C(C(=O)NC2CCCC2)c2ccncc2)no1 (stereo not given) | not met
c1ccc(-c2cc(-c3nnc4sc(-c5ccccn5)nn34)[nH]n2)cc1 | met
CCOC(=O)C1CCN(C(=O)CC2C(=O)N(Cc3ccccc3)C(C)c3nc4ccccc4n32)CC1 (stereo not given) | met
Cn1c(=O)[nH]c(=O)c2c1nc(N1CCN(CCO)CC1)n2CCSc1nc2ccccc2s1 | not met

Consider the additional compound presented here.
Exam item: Report whether reported z-score is lower than -0.5 (strictly) for CCOC(=O)N1CCC(NC(=O)c2ccc3nc(N4CCOCC4)sc3c2)CC1
Marked response: met

* * *

tested-system: Genome polyprotein (West Nile virus) (UniProt P06935)
assay-procedure: West Nile NS2B-NS3 proteinase blockers – biochemical, fluorogenic substrate, primary screen (AID 577)
condition-description: WNV NS2B-NS3 protease, fluorogenic substrate Ex360/Em465
The campaign covered roughly 65,000 compounds. About 120 (0.18%) were called active. Rule as the data show it: active = z-score below about -3; inactive = the rest. This is one part of a sample in which actives are shown more often than they occur.
// one of active, inactive, no free text

Take a look at these entries with their results.
compound | tested-system | class-assignment
CCCOc1ccc(Cn2c(O)cc(=O)[nH]c2=O)cc1 | Genome polyprotein (West Nile virus) (UniProt P06935) | inactive
COc1ccc(-c2cn3ccsc3n2)cc1 | Genome polyprotein (West Nile virus) (UniProt P06935) | active
O=C1CCC(Cc2ccccc2)N1 (stereo not given) | Genome polyprotein (West Nile virus) (UniProt P06935) | inactive
COc1ccc(CCN=C2SCC(=O)N2C)cc1OC | Genome polyprotein (West Nile virus) (UniProt P06935) | inactive

Exam item: Could you please tell me the result logged for CC1CSc2nnc(CCc3ccccc3)n21 (stereo not given) in this assay?
Marked response: inactive

Exam item: Same again, this time with COc1ccc2c(Cl)c(-c3nnco3)sc2c1
Marked response: inactive

Exam item: Same again, this time with Fc1ccc(OCc2nn3c(Cn4nnc5ccccc54)nnc3s2)cc1
Marked response: inactive

Exam item: Same again, this time with O=C1CC(Cc2ccccc2)C(=O)N1c1ccc(Cl)cn1 (stereo not given)
Marked response: inactive

Exam item: Same again, this time with O=C(COc1ncnc2ccccc12)NC(=O)NCc1ccccc1
Marked response: inactive

* * *

tested-system: Genome polyprotein (West Nile virus)
assay-procedure: West Nile NS2B-NS3 proteinase blockers – biochemical, fluorogenic substrate, primary screen (AID 577)
condition-description: WNV NS2B-NS3 protease, fluorogenic substrate Ex360/Em465; hits give low values
Screen size: about 65,000 compounds; about 120 (0.18%) were called active. Many of the other results were omitted from the sample, so actives are more common in it than they were.
Classify by z-score. Ranges: low (below -0.2), mid (-0.2 to below -0.02), high (-0.02 or more)

Take a look at these entries with their results.
compound | class-assignment
CCOC(=O)C1CCCN(C(=O)c2ccc(CS(=O)(=O)c3ccc(Br)cc3)o2)C1 (stereo not given) | low
COc1ccc(-c2ccc(Nc3ccc(S(=O)(=O)N4CCCC4)cc3)nn2)cc1OC | low
O=C(CNC(=O)c1ccc(Cl)cc1Cl)NCC(=O)Nc1ccccc1N1CCOCC1 | low
Cc1ccc2c(c1)NCC(C(=O)NC1CCC(C)CC1)O2 (stereo not given) | high
Cn1c(=O)c2[nH]c(NCC3CCCO3)nc2n(-c2ccccc2)c1=O (stereo not given) | mid

Exam item: Place this compound in its band: Cc1ccccc1-c1nc(CS(=O)(=O)CC(=O)N2CCc3ccccc3C2)c(C)o1
Marked response: low

Exam item: Same again, this time with O=C(CC1N=C2c3ccccc3N=C(SCc3ccccc3Cl)N2C1=O)NCc1ccco1 (stereo not given)
Marked response: high

Exam item: Same again, this time with O=C(Nc1ccccc1N1CCCCC1)c1cccc(F)c1
Marked response: high

Exam item: Same again, this time with CCOC(=O)C1CCCN(C(=O)CN(c2ccc(OC)cc2)S(=O)(=O)c2c(C)noc2C)C1 (stereo not given)
Marked response: mid

* * *

tested-system: Genome polyprotein (West Nile virus)
assay-procedure: West Nile NS2B-NS3 proteinase blockers – biochemical, fluorogenic substrate, primary screen (AID 577)
condition-description: WNV NS2B-NS3 protease, fluorogenic substrate Ex360/Em465; hits give low values
In all, about 65,000 compounds went through this assay and about 120 (0.18%) were called active. Only a selection was taken, and actives are over-represented in it overall.
measured-quantity: z-score

Worked examples, 5 molecules total:
molecule | z-score
COc1ccc(NC(=O)Nc2cccc3cccnc23)cc1 | -0.61 (inactive)
Cc1oc(CC(C)C)c(CN2CCCC2)c1C(=O)O | 0.09 (inactive)
CCOC(=O)C1=C(CNC2CCCCC2)NC(=O)NC1c1cc(C)ccc1C (stereo unspecified) | -0.35 (inactive)
COc1ccc(CC(=O)Nc2ccc(-c3nnc(-c4ccc(C)cc4)o3)cc2)cc1 | 0.17 (inactive)
CC(C(=O)N1CCOCC1)N1c2cccc3cccc(c23)S1(=O)=O (stereo unspecified) | -0.43 (inactive)

Exam item: What z-score value was documented for this molecule, CSc1sc(C)cc1C1C(C#N)=C(N)N(c2cccnc2)C2=C1C(=O)CCC2 (stereo unspecified) ?
Marked response: 0.7 (inactive)

Exam item: Same again, this time with O=C(O)C1OC(C(=O)O)C2C1C(F)(F)C2(F)F (stereo unspecified)
Marked response: 1.24 (inactive)

Exam item: Same again, this time with O=C(NC1CCCCC1)N1CCc2[nH]c3ccccc3c2C1
Marked response: 0.65 (inactive)

Exam item: Same again, this time with COCCCN(C(=O)Cn1ncc2c(=O)oc3ccc(C)cc3c21)C(C)c1ccncc1 (stereo unspecified)
Marked response: -0.67 (inactive)

Exam item: Same again, this time with CCOc1ccc(-c2nnc(-c3ccco3)o2)cc1
Marked response: -0.08 (inactive)

Exam item: Same again, this time with CCSC1(SCC)N=C(N)C2(C#N)C(c3ccccc3)NC(C)=CC12C#N (stereo unspecified)
Marked response: -1.23 (inactive)
